Hey, just so you know, these numbers are from ChEMBL document CHEMBL5230157.

TARGET DESC: Cell division protein FtsZ (Bacillus subtilis, UniProt A5Z1V5)
Sequence (A5Z1V5 whole entry): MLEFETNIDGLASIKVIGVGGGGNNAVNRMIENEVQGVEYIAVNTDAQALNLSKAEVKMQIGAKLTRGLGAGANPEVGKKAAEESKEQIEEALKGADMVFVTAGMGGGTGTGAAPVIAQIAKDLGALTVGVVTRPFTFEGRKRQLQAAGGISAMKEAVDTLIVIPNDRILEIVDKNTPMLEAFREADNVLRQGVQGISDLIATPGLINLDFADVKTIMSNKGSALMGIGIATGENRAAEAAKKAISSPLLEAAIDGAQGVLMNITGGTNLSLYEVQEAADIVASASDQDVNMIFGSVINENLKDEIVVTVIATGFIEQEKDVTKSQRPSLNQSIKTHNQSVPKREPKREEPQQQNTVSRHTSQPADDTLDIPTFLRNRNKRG
MEASUREMENT TYPE: Kd (µM)
Number only, in µM; omit the unit.

QUERY: Kd for CC1=CC(=O)c2c(O)cccc2C1=O [PLUMBAGIN] ?
RESULT: 15.8

----------
TARGET DESC: Cell division protein FtsZ (Escherichia coli K-12)
Sequence (P0A9A6 whole entry): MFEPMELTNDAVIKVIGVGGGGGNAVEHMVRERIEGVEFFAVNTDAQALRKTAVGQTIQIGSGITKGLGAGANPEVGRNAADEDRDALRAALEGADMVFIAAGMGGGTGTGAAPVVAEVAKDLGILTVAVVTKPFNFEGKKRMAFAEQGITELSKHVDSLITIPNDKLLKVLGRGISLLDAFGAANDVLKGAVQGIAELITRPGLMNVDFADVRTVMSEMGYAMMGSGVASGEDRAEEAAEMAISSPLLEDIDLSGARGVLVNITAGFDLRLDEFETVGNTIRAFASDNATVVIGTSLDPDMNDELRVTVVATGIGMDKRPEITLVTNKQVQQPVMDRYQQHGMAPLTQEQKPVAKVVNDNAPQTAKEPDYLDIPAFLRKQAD
MEASUREMENT DESCRIPTION: Binding affinity to Escherichia coli BL21 FtsZ assessed as dissociation constant of hydrophobic probe ANS-FtsZ complex fluorescence quenching incubated for 30 mins by double reciprocal plot analysis
MEASUREMENT TYPE: pKd
Please keep in mind that pKd is minus log10 of the molar concentration; only the number is needed.

QUERY: pKd for `O=C1c2ccccc2C(=O)c2c(O)c(O)cc(O)c21` ?
RESULT: 4.96
